- measured_on: His-tagged recombinant human Gal-3 (hGal-3) (Homo sapiens, UniProt P17931)
- Sequence (P17931 whole entry): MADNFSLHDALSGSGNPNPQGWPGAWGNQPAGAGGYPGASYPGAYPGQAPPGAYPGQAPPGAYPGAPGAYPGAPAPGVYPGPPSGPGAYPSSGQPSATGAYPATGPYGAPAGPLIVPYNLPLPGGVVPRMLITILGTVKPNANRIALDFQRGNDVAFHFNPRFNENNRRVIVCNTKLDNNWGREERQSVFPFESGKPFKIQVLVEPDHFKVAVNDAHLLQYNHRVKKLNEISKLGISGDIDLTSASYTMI
- assay_info: Gal-3 HTRF assay (His-tagged hGal-3 / B-ASF)
- Type: binding
- stated_conditions: 15 nM hGal-3, 15 nM B-ASF
pIC50: −log10 of the molar value.
Catalogue of compounds with associated pIC50

[
  {
    "compound": "Cc1nc([C@@H]2O[C@H](CO)[C@H](O)[C@H](n3cc(-c4cc(F)c(Cl)c(F)c4)nn3)[C@H]2OCC(=O)N2CC(COc3ccc(C(=O)Nc4ccc5c(c4)C(=O)N(C4CCC(=O)NC4=O)C5)cc3)C2)n(-c2cc(Cl)ccc2C(F)(F)F)n1 (stereo partly shown) [Example 11]",
    "pIC50": 7.40
  },
  {
    "compound": "Cc1nc([C@@H]2O[C@H](CO)[C@H](O)[C@H](n3cc(-c4cc(F)c(Cl)c(F)c4)nn3)[C@H]2OCC(=O)N2CCC(Oc3ccc(C(=O)Nc4ccc5c(c4)CN(C4CCC(=O)NC4=O)C5=O)cc3)CC2)n(-c2cc(Cl)ccc2C(F)(F)F)n1 (stereo partly shown) [Example 31]",
    "pIC50": 6.86
  },
  {
    "compound": "Cc1nc([C@@H]2O[C@H](CO)[C@H](O)[C@H](n3cc(-c4cc(F)c(Cl)c(F)c4)nn3)[C@H]2OCC(=O)NCc2ccc(C(=O)Nc3ccc4c(c3)CN(C3CCC(=O)NC3=O)C4=O)cc2)n(-c2cc(Cl)ccc2C(F)(F)F)n1 (stereo partly shown) [Example 2]",
    "pIC50": 6.96
  },
  {
    "compound": "Cc1nc([C@@H]2O[C@H](CO)[C@H](O)[C@H](n3cc(-c4cc(F)c(Cl)c(F)c4)nn3)[C@H]2OCC(=O)N2CCC(COc3ccc(C(=O)Nc4ccc5c(c4)CN(C4CCC(=O)NC4=O)C5=O)cc3)CC2)n(-c2cc(Cl)ccc2C(F)(F)F)n1 (stereo partly shown) [Example 27]",
    "pIC50": 6.51
  }
]
